Molecular target: LHRH receptors (Rattus norvegicus, UniProt P30969)
Construct: Pituitary membranes containing LHRH receptors are prepared in batches from quick-frozen rat pituitaries; tissue Hilltop Labs; host or cells: rat pituitary membranes
Sequence (P30969 1-327): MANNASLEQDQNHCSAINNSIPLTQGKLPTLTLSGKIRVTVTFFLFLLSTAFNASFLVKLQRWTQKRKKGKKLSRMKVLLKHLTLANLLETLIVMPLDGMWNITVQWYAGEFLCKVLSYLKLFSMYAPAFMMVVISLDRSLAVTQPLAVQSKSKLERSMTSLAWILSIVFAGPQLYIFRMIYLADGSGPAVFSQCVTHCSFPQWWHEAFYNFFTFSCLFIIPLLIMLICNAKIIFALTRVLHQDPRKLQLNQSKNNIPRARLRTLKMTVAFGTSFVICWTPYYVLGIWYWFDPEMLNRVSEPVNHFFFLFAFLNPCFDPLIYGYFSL
Experiment: Receptor Binding (radioligand receptor binding assay)
Settings: table 3; rat pituitary membranes, radioiodinated [D-Leu^6 -des Gly^10 ]-LHRH ethyl amide 50 pM, 2 hours at 4° C.; read-out: Receptor Binding pkI (converted)
Numbered stars: 1 amine (or outer) side, 2 acyl side, 3 side chain; on linkers, the order of the positions; unused ones are H or OH. Square brackets hold non-standard residues; d marks the D form. Peptide text beside a SMILES is read from it. * marks the point of attachment. Propanoyl(3-(1-naphthyl)) = O=C(CCc1cccc2ccccc12)*; Propanoyl(3-indol-3-yl) = O=C(CCc1c[nH]c2ccccc12)*; Butyryl(4-indol-3-yl) = O=C(CCCc1c[nH]c2ccccc12)*; Propanoyl(3-(4-F-phenyl)) = O=C(CCc1ccc(F)cc1)*; Propanoyl(3-(4-Cl-Ph)) = O=C(CCc1ccc(Cl)cc1)*; Phe(4-Cl) = N[C@@H](Cc1ccc(Cl)cc1)C(=O)O; dCha = N[C@H](CC1CCCCC1)C(=O)O; Morpholide = C1CN(*)CCO1; CO = O=C([*:1])[*:2]; Bn = c1ccc(C*)cc1
This listing pairs molecules with measured Ki.
Numeric answer only, unit nM assumed.

CCNC(=O)[C@@H]1CCCN1C(=O)[C@H](CCCNC(=N)N)NC(=O)[C@H](CC(C)C)NC(=O)[C@@H](Cc1c[nH]c2ccccc12)NC(=O)[C@H](Cc1ccc(O)cc1)NC(=O)[C@H](CO)NC(=O)[C@@H](Cc1c[nH]c2ccccc12)NC(=O)CCc1ccc(F)cc1 [Compound 91] ({Propanoyl(3-(4-F-phenyl))}-[dW]SY[dW]LRP-NHEt) :: 0.0288
CCNC(=O)[C@@H]1CCCN1C(=O)[C@H](CCCNC(=N)N)NC(=O)[C@H](CC(C)C)NC(=O)[C@@H](Cc1c[nH]c2ccccc12)NC(=O)[C@H](Cc1ccc(O)cc1)NC(=O)[C@H](CO)NC(=O)[C@H](Cc1c[nH]c2ccccc12)NC(=O)[C@H](Cc1ccc(Cl)cc1)NC(=O)N1CCOCC1 [Compound 112] ({Morpholide-CO}-[Phe(4-Cl)]WSY[dW]LRP-NHEt) :: 0.316
CCNC(=O)[C@@H]1CCCN1C(=O)[C@H](CCCNC(=N)N)NC(=O)[C@H](CC(C)C)NC(=O)[C@@H](CC1CCCCC1)NC(=O)[C@H](Cc1ccc(O)cc1)NC(=O)[C@H](CO)NC(=O)CCCc1c[nH]c2ccccc12 [Compound 36] ({Butyryl(4-indol-3-yl)}-SY[dCha]LRP-NHEt) :: 17
CCNC(=O)[C@@H]1CCCN1C(=O)[C@H](CCCNC(=N)N)NC(=O)[C@H](CC(C)C)NC(=O)[C@@H](CCCNC(=N)N)NC(=O)[C@H](Cc1ccc(O)cc1)NC(=O)[C@H](CO)NC(=O)CCc1c[nH]c2ccccc12 [Compound 35] ({Propanoyl(3-indol-3-yl)}-SY[dR]LRP-NHEt) :: 204
CCNC(=O)[C@@H]1CCCN1C(=O)[C@H](CCCNC(=N)N)NC(=O)[C@H](CC(C)C)NC(=O)[C@@H](CCCNC(=N)N)NC(=O)[C@H](Cc1ccc(O)cc1)NC(=O)[C@H](COCc1ccccc1)NC(=O)CCc1cccc2ccccc12 [Compound 45] ({Propanoyl(3-(1-naphthyl))}-S(Bn)Y[dR]LRP-NHEt) :: 6.03

Proceed to the following item.
-- ask Indicate its recorded Ki; the molecule in question is CCNC(=O)[C@@H]1CCCN1C(=O)[C@H](CCCNC(=N)N)NC(=O)[C@H](CC(C)C)NC(=O)[C@@H](Cc1c[nH]c2ccccc12)NC(=O)[C@H](Cc1ccc(O)cc1)NC(=O)[C@H](CO)NC(=O)[C@H](Cc1c[nH]c2ccccc12)NC(=O)CCc1ccc(Cl)cc1 [Compound 98] ({Propanoyl(3-(4-Cl-Ph))}-WSY[dW]LRP-NHEt)
-- reply 0.0525

---

The reader will find reported Ki values listed item by item below.
Biological target: LHRH receptors (Rattus norvegicus)
Construct: Pituitary membranes containing LHRH receptors are prepared in batches from quick-frozen rat pituitaries; tissue Hilltop Labs; host or cells: rat pituitary membranes
Sequence (P30969 1-327): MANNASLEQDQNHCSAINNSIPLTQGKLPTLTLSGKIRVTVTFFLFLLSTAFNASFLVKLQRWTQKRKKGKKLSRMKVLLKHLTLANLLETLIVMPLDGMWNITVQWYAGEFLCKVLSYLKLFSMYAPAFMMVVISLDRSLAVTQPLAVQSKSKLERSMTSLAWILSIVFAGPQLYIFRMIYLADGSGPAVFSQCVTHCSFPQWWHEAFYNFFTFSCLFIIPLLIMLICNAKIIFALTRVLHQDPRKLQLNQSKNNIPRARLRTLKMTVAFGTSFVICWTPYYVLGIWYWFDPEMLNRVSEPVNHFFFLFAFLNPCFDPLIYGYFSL
Test: Receptor Binding (radioligand receptor binding assay)
Conditions: table 4; rat pituitary membranes, radioligand 50 pM, 2 hours at 4° C.; read-out: Receptor Binding pkI (converted)
Numbered stars: 1 amine (or outer) side, 2 acyl side, 3 side chain; on linkers, the order of the positions; unused ones are H or OH. Square brackets hold non-standard residues; d marks the D form. Side chains are listed from the residue outwards. Peptide text beside a SMILES is read from it. * marks the point of attachment. Propanoyl(3-(4-F-phenyl)) = O=C(CCc1ccc(F)cc1)*; X10 = O=C([C@@H](Cc1cncs1)N[*:1])[*:2]; d1Nal = N[C@H](Cc1cccc2ccccc12)C(=O)O; Lys(iPr) = CC(C)NCCCC[C@H](N)C(=O)O; NMeY = CN[C@@H](Cc1ccc(O)cc1)C(=O)O; Benzoyl(4-F) = O=C(c1ccc(F)cc1)*; Nicotinoyl = O=C(c1cccnc1)*; dOrn = NCCC[C@@H](N)C(=O)O; Morpholide = C1CN(*)CCO1; Orn = NCCC[C@H](N)C(=O)O; CO = O=C([*:1])[*:2]; Sar = CNCC(=O)O
The reply should contain only the number, in nM.

Sample records with Ki:
CC(=O)NCCC[C@H](NC(=O)c1ccc(F)cc1)C(=O)N[C@H](Cc1cccc2ccccc12)C(=O)N[C@@H](CO)C(=O)N[C@@H](Cc1ccc(O)cc1)C(=O)N[C@H](CCCCNC(=O)c1cccnc1)C(=O)N[C@@H](CC(C)C)C(=O)N[C@@H](CCCNC(=N)N)C(=O)N1CCC[C@H]1C(=O)N[C@H](C)C(N)=O [Compound 217] ({Benzoyl(4-F)}-[Orn](Ac)[d1Nal]SY[dK](Nicotinoyl)LRP[dA]-NH2) :: 1.91
CC(C)C[C@H](NC(=O)[C@@H](CCCN)NC(=O)[C@H](Cc1ccc(O)cc1)N(C)C(=O)[C@H](CO)NC(=O)[C@@H](Cc1cccc2ccccc12)NC(=O)CCc1ccc(F)cc1)C(=O)N[C@@H](CCCNC(=N)N)C(=O)N1CCC[C@H]1C(=O)N[C@H](C)C(N)=O [Compound 192] ({Propanoyl(3-(4-F-phenyl))}-[d1Nal]S[NMeY][dOrn]LRP[dA]-NH2) :: 0.00676
CC(C)C[C@H](NC(=O)[C@@H](CCCCNC(=O)N1CCOCC1)NC(=O)[C@H](Cc1ccc(O)cc1)N(C)C(=O)[C@H](CO)NC(=O)[C@@H](Cc1cccc2ccccc12)NC(=O)CCc1ccc(F)cc1)C(=O)N[C@@H](CCCNC(=N)N)C(=O)N1CCC[C@H]1C(=O)N[C@H](C)C(N)=O [Compound 210] ({Propanoyl(3-(4-F-phenyl))}-[d1Nal]S[NMeY][dK]([CO-Morpholide])LRP[dA]-NH2) :: 0.00891
CC(C)C[C@H](NC(=O)[C@@H](CCCCNC(=O)c1cccnc1)NC(=O)[C@H](Cc1ccc(O)cc1)N(C)C(=O)[C@H](CO)NC(=O)[C@@H](Cc1cccc2ccccc12)NC(=O)CCc1ccc(F)cc1)C(=O)N[C@@H](CCCCNC(C)C)C(=O)N1CCC[C@H]1C(=O)N(C)CC(N)=O [Compound 255] ({Propanoyl(3-(4-F-phenyl))}-[d1Nal]S[NMeY][dK](Nicotinoyl)L[Lys(iPr)]P[Sar]-NH2) :: 0.0151
CC(C)C[C@H](NC(=O)[C@@H](CCCCN)NC(=O)[C@H](Cc1ccc(O)cc1)N(C)C(=O)[C@H](CO)NC(=O)[C@@H](Cc1cncs1)NC(=O)CCc1ccc(F)cc1)C(=O)N[C@@H](CCCNC(=N)N)C(=O)N1CCC[C@H]1C(=O)N[C@H](C)C(N)=O [Compound 183] ({Propanoyl(3-(4-F-phenyl))}-[X10]S[NMeY][dK]LRP[dA]-NH2) :: 0.0263

Could you now look at the following compound, please?
-- ask Look up and state reported Ki for CC(C)C[C@H](NC(=O)[C@@H](CCCCN)NC(=O)[C@H](Cc1ccc(O)cc1)N(C)C(=O)[C@H](CO)NC(=O)[C@@H](Cc1cccc2ccccc12)NC(=O)CCc1ccc(F)cc1)C(=O)N[C@@H](CCCCNC(C)C)C(=O)N1CCC[C@H]1C(=O)N[C@H](C)C(N)=O [Compound 199] ({Propanoyl(3-(4-F-phenyl))}-[d1Nal]S[NMeY][dK]L[Lys(iPr)]P[dA]-NH2)
-- reply 0.00832
